Assay: qHTS RealTime-Glo MT Cell Viability Assay in HepG2 cells - 8 hour (AID 1224873); also: nearly all actives have a fitted effect of over 55% in size
Settings: RealTime-Glo luminescence; series mostly up to 76.8 µM
Records with an inconclusive call do not appear. Active and inactive are the calls of the source. Calls follow the shape of the dose curve; as a rule, active = well fitted cell-killing curve with a large enough effect in the repeat runs; inconclusive = weak or mixed curves; inactive = flat fitted curve, though single readings scatter.
Possible outcomes: t for active, f for inactive

- CCN(CC)CCN1C(=O)CN=C(c2ccccc2F)c2cc(Cl)ccc21: f
- O=[N+]([O-])[O-].[Tl+]: f
- CCOP(=S)(NC(C)C)Oc1ccccc1C(=O)OC(C)C (stereo not drawn): f
- N#Cc1sc2c(=O)c3ccccc3c(=O)c=2sc1C#N: t
- CC(Cc1ccc2c(c1)OCO2)NO (stereo not drawn): f
- CNC(=O)Oc1cc(C)cc(C(C)C)c1: f
- CC1CCCC1: f
- CC(=O)C(Cl)C(=O)N(C)C (stereo not drawn): f
- CC(=O)[O-].CC(=O)[O-].CC(=O)[O-].[Cr+3]: f
- Oc1cc(Cl)c(Cl)c(Cl)c1Cl: f
- CSSC: f
- Nc1nc(N)nc(Cl)n1: f
- BrCC(Br)(Br)Br: f
- Cc1cccc(Cc2cnc[nH]2)c1C: f
- CCCCn1cc[n+](C)c1 (tested in a mixture with another compound): f
- CNC(=O)CSP(=O)(OC)OC: f
- [C-]1=CC=CC1.[Cl][Zr+2][Cl].c1cc[cH-]c1: f
- O=C(NC(=O)c1c(F)cccc1F)Nc1ccc(Oc2ccc(C(F)(F)F)cc2Cl)cc1F: f
- O=[N+]([O-])c1ccc(CCl)cc1: f
- CNC(C)(C)Cc1ccccc1: f
- O=[N+]([O-])C(Br)Br: f
- O=[N+]([O-])c1ccccc1-c1ccccc1: f
- ClC1=C(Cl)[C@]2(Cl)[C@@H]3[C@H]4C[C@H]([C@@H]5O[C@H]45)[C@@H]3[C@@]1(Cl)C2(Cl)Cl: f
